- tested target: Ba/F3-EGFR-N771_P772insH cells (Homo sapiens, UniProt P00533, INS771H, cells depend on it)
- Sequence (P00533 with tags, fused parts or gaps INS771H): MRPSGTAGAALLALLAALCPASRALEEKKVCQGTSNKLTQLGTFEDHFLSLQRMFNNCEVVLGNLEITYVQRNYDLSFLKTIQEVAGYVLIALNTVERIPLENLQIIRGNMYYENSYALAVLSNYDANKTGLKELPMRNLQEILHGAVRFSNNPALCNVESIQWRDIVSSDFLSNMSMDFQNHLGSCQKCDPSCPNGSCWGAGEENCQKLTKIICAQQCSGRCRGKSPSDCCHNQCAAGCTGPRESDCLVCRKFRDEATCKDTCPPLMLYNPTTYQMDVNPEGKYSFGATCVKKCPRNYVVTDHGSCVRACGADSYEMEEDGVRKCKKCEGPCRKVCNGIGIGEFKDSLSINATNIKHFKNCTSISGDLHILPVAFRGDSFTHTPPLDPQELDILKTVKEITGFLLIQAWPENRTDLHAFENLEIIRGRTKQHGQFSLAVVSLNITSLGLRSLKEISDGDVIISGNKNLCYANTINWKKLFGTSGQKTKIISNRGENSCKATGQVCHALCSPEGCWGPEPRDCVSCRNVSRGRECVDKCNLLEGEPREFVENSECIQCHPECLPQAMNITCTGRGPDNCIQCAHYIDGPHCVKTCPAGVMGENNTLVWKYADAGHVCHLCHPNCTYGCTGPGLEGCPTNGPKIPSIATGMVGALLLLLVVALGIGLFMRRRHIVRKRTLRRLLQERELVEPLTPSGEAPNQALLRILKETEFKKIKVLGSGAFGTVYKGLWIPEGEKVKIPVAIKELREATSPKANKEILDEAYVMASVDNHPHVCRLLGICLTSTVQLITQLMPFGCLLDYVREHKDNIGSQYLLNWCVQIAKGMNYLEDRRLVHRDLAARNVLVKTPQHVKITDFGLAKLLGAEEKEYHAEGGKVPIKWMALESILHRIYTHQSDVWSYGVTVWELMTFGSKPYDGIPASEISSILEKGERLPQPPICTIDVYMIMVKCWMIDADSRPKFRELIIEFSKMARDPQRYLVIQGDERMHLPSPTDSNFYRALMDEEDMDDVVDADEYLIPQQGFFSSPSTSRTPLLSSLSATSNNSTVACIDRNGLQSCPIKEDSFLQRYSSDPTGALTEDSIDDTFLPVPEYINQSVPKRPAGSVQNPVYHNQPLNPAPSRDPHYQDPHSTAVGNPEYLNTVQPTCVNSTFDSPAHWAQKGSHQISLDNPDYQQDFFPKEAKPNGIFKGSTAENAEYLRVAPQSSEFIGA
- assay overview: Ba/F3 cell survival assay, EGFR N771_P772insH
- Assay type: cell-based
- measurement conditions: without IL-3, without EGF, 48 h; read-out: BA/F3 (EGFR N771_772 insH) IC50
parameter: GI50 (nM)
Value expressed in nM; do not type the unit.

Consider the worked cases shown below.
The value of GI50 recorded for COc1c(F)cccc1Nc1c(-c2ccncc2OCC2COCCO2)[nH]c2c1C(=O)NCC2 (single isomer, unassigned) when tested on Ba/F3-EGFR-N771_P772insH cells (Homo sapiens, UniProt P00533, INS771H, cells depend on it) reads 11.5

The value of GI50 recorded for COc1c(Cl)cccc1Nc1c(-c2ccncc2OCC2COC(C)(C)CO2)[nH]c2c1C(=O)NCC2 (single isomer, unassigned) when tested on Ba/F3-EGFR-N771_P772insH cells (Homo sapiens, UniProt P00533, INS771H, cells depend on it) reads 11

# input for lookup
The value of GI50 recorded for O=C1NCCc2[nH]c(-c3ccncc3OCC3COCCO3)c(Nc3cccc(Cl)c3Cl)c21 (single isomer, unassigned) when tested on Ba/F3-EGFR-N771_P772insH cells (Homo sapiens, UniProt P00533, INS771H, cells depend on it) reads 4.91

* * *

- tested target: Ba/F3-EGFR-WT cells (Homo sapiens, UniProt P00533)
- Sequence (P00533 whole entry, change not shown): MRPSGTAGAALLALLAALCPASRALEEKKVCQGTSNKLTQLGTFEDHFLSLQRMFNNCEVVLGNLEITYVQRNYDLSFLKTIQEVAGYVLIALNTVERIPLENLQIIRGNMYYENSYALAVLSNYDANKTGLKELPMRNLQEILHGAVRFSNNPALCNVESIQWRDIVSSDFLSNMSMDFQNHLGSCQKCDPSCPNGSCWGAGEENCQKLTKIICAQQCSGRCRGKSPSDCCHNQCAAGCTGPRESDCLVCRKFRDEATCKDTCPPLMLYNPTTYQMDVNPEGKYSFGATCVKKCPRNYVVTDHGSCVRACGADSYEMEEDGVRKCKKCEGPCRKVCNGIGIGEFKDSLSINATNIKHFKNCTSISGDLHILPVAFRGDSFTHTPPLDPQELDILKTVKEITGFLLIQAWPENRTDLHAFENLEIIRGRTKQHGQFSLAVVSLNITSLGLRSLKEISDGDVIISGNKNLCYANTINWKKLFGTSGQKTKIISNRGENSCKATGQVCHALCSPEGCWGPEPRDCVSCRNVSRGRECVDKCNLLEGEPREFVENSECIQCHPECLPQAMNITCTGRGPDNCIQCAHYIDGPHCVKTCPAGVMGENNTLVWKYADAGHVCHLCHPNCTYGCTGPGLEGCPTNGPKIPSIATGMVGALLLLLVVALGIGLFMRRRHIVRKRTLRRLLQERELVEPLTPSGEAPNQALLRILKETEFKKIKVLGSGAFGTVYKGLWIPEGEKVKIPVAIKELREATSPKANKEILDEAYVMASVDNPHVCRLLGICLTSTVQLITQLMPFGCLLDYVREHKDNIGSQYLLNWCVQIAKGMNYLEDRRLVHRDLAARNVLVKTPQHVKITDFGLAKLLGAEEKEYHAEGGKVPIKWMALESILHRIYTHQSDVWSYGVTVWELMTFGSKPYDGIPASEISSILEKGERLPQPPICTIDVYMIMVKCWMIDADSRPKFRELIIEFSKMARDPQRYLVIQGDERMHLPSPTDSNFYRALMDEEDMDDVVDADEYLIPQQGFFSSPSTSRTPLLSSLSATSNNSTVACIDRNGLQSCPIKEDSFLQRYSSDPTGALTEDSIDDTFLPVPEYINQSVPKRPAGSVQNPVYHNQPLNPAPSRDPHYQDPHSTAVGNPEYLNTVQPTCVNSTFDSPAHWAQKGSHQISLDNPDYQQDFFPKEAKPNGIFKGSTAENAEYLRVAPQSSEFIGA
- assay overview: Ba/F3 cell survival assay (Cell Titer-Glo), WT EGFR
- Type: cell-based
- measurement conditions: without IL-3, with 10 ng/mL EGF, 48 h; read-out: BA/F3 (wild type) IC50
- Experimental: 293T cells from ATCC were transfected with pBABEpuro expression constructs for WT EGFR or EGFR-insSVD and pCL-Eco packaging vector using Fugene-6 transfection reagent from Promega. Plates were incubated at 37° C. for 48 h. […] Cell viability was measured by adding 20 μL of Cell Titer-Glo Luminescent Cell Viability Reagent diluted 1:3 in PBS. […] Plates were incubated in low light conditions for 8-10 min and luminescence was measured.
parameter: GI50 (nM)
Value expressed in nM; do not type the unit.

Consider the worked cases shown below.
The value of GI50 measured for the molecule COc1c(Cl)cccc1Nc1c(-c2ccncc2OC[C@H]2COCCO2)[nH]c2c1C(=O)NCC2 (single isomer, unassigned) turned out to be 755

The value of GI50 measured for the molecule Cc1c(Cl)cccc1Nc1c(-c2ccncc2OC[C@H]2COCCO2)[nH]c2c1C(=O)NCC2 (single isomer, unassigned) [Example 51] turned out to be 742

# input for lookup
The value of GI50 measured for the molecule COc1c(Cl)cccc1Nc1c(-c2ccncc2OCC2COC(C)(C)CO2)[nH]c2c1C(=O)NCC2 (stereo not drawn) turned out to be 407

* * *

- tested target: Ba/F3-EGFR-insSVD cells (Homo sapiens, UniProt P00533, DUP768-770, cells depend on it)
- Sequence (P00533 with tags, fused parts or gaps DUP768-770): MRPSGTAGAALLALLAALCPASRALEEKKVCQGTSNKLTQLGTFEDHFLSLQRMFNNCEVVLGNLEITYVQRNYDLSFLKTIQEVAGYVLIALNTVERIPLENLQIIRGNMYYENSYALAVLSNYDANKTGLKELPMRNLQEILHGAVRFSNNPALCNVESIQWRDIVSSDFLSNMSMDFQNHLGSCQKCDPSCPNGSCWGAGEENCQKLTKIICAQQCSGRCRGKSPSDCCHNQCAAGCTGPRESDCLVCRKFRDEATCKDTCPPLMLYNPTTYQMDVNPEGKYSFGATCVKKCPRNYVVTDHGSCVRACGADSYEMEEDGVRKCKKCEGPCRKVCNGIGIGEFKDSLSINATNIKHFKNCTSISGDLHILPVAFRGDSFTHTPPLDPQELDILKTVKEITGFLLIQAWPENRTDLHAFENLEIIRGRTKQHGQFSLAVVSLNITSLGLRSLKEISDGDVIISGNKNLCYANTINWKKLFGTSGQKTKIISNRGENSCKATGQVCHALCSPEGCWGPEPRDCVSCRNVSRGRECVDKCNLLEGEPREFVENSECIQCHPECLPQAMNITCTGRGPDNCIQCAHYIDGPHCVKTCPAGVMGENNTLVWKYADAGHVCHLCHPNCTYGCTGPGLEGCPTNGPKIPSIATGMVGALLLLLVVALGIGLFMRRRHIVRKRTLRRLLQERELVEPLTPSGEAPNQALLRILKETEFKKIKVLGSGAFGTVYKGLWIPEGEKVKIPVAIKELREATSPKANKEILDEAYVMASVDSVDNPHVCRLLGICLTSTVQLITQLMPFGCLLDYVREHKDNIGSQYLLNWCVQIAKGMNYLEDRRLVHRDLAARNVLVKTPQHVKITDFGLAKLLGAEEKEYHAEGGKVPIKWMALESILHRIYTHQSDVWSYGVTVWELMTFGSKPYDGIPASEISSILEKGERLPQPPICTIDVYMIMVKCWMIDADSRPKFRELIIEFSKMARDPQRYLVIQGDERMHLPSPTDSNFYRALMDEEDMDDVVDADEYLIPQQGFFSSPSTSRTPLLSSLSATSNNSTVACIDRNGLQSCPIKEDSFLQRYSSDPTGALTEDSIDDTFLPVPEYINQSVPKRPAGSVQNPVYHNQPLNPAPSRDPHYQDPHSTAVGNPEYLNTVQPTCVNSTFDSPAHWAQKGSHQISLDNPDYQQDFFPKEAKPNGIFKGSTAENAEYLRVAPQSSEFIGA
- assay overview: Ba/F3 cell survival assay (Cell Titer-Glo), EGFR-insSVD
- Type: cell-based
- measurement conditions: without IL-3, with 10 ng/mL EGF, 48 h; read-out: BA/F3 (insSVD) IC50
- Description: 293T cells from ATCC were transfected with pBABEpuro expression constructs for WT EGFR or EGFR-insSVD and pCL-Eco packaging vector using Fugene-6 transfection reagent from Promega. Plates were incubated at 37° C. for 48 h. […] Cell viability was measured by adding 20 μL of Cell Titer-Glo Luminescent Cell Viability Reagent diluted 1:3 in PBS. […] Plates were incubated in low light conditions for 8-10 min and luminescence was measured.
parameter: log10 of GI50 (log10 of the value in µM)
Scale: log10; quantity: GI50; unit before log: µM

Consider the worked cases shown below.
The value of log10 of GI50 measured for the molecule COc1c(Cl)cc(F)cc1Nc1c(-c2ccncc2OCC2CN(C)CCO2)[nH]c2c1C(=O)NCC2 (centres unmarked) [Example 18] turned out to be -1.55

The value of log10 of GI50 measured for the molecule CCc1c(Cl)cccc1Nc1c(-c2ccncc2OCC2COCCO2)[nH]c2c1C(=O)NCC2 (centres unmarked) [Example 52] turned out to be -1.87

The value of log10 of GI50 measured for the molecule COc1c(Cl)cccc1Nc1c(-c2ccncc2OCC2CN(C)CCO2)[nH]c2c1C(=O)NCC2 (single isomer, unassigned) [Example 16] turned out to be -0.90

The value of log10 of GI50 measured for the molecule Cc1c(Cl)cccc1Nc1c(-c2ccncc2OCC2COC(C)(C)CO2)[nH]c2c1C(=O)NCC2 (centres unmarked) [Example 44] turned out to be -1.59

The value of log10 of GI50 measured for the molecule COc1c(Cl)cccc1Nc1c(-c2ccncc2OCC2COCCO2)[nH]c2c1C(=O)NCC2 (centres unmarked) [Example 1] turned out to be -2.01

The value of log10 of GI50 measured for the molecule COc1c(Cl)cccc1Nc1c(-c2ccncc2O[C@@H](C)C2COCCO2)[nH]c2c1C(=O)NCC2 (mixture of isomers) [Example 57] turned out to be -1.55

The value of log10 of GI50 measured for the molecule COc1c(Cl)cccc1Nc1c(-c2ccncc2O[C@@H](C)C2COCCO2)[nH]c2c1C(=O)NCC2 (single isomer, unassigned) [Example 59] turned out to be -1.73

The value of log10 of GI50 measured for the molecule Cc1c(F)cccc1Nc1c(-c2ccncc2OCC2CN(C)CCO2)[nH]c2c1C(=O)NCC2 (single isomer, unassigned) [Example 64] turned out to be -2.12

The value of log10 of GI50 measured for the molecule Cc1c(F)cccc1Nc1c(-c2ccncc2OCC2COCCO2)[nH]c2c1C(=O)NCC2 (single isomer, unassigned) [Example 48] turned out to be -1.73

The value of log10 of GI50 measured for the molecule COc1c(Cl)cccc1Nc1c(-c2ccncc2OC[C@H]2COCCO2)[nH]c2c1C(=O)NCC2 (single isomer, unassigned) [Example 3] turned out to be -1.64

More entries:
The value of log10 of GI50 measured for the molecule CCc1c(Cl)cccc1Nc1c(-c2ccncc2OC[C@@H]2COCCO2)[nH]c2c1C(=O)NCC2 (single isomer, unassigned) [Example 53] turned out to be -1.67

The value of log10 of GI50 measured for the molecule O=C1NCCc2[nH]c(-c3ccncc3OCC3COCCO3)c(Nc3cccc(Cl)c3Cl)c21 (single isomer, unassigned) [Example 8] turned out to be -2.09

The value of log10 of GI50 measured for the molecule COc1c(F)cccc1Nc1c(-c2ccncc2OCC2CN(C)CCO2)[nH]c2c1C(=O)NCC2 (single isomer, unassigned) [Example 14] turned out to be -1.98

The value of log10 of GI50 measured for the molecule COc1c(Cl)cc(F)cc1Nc1c(-c2ccncc2OCC2COCCO2)[nH]c2c1C(=O)NCC2 (centres unmarked) [Example 19] turned out to be -1.54
